Measured TGI by item
# Tested on: NCI-H460 lung
# protocol: NCI tumour cell line growth inhibition, 48 h

compound	TGI
N=C1CCCC1C(=S)SCCC(N)=O (configuration not stated)	> 100 µM
N/N=C(/Cc1ccccc1)NNO	> 100 µM
CCC1(c2ccc(N3C(=O)c4cccc5cc([N+](=O)[O-])cc(c45)C3=O)cc2)CCC(=O)NC1=O (configuration not stated)	> 50 µM
COc1ccc(-c2ccc(CC(=O)O)cc2)cc1OC	> 100 µM
Clc1ccccc1C(Nc1cnccn1)Nc1cnccn1	> 100 µM
CCOC(=O)c1cc(-c2ccc(OC)cc2)c([N+](=O)[O-])[nH]1	> 10 µM
COc1c2ccoc2nc2c(OC)c(OCC(O)C(C)(C)O)ccc12 (configuration not stated)	> 100 µM
COc1cc(C2CC(c3ccc(Nc4nc(NCCO)nc(NCCO)n4)cc3)=NN2c2cc(Cl)cc(Cl)c2)cc(OC)c1OC (configuration not stated)	3.8 µM
CN(C)C(=S)/N=c1\ss/c(=N\C(=S)N(C)C)n1-c1cccc(Cl)c1	> 100 µM
O=P1(N(CCCl)CCCl)Oc2ccc(Cl)cc2C(C(Cl)(Cl)Cl)c2cc(Cl)ccc2O1 (configuration not stated)	29.8 µM
Nc1[nH]c(=O)nc2c1ncn2C1OC(CO)C(O)C1O (configuration not stated)	> 100 µM
O=c1c2cccnc2ncn1CCCN1CCCCC1	> 100 µM
O=C(Nc1ccc(Cl)cc1C(F)(F)F)C(=O)Nn1c(=S)[nH]c2ccccc2c1=O	> 100 µM
Cc1nc(NC(C)(CO)CO)nc(N/N=C/c2ccc(Cl)cc2)c1C(=O)Nc1ccc(Cl)cc1	> 100 µM
O=C(Nc1ccccc1)N1CCN(C(=O)Nc2ccccc2)C1=S	> 100 µM
COC(=O)C1=C(CCCCO[Si](C)(C)C(C)(C)C)NC(=O)N2[C@H](CCOCc3ccccc3)CC[C@@H]12	> 100 µM
COc1cc(CCNC2=CC(=O)c3nc[nH]c3C2=O)ccc1O	> 100 µM
COc1ccc(-c2ccc(OC)c(OC)c2OC)cc1	> 48 µM
CCOC(=O)NC(=S)N(CC(=O)c1cc(OC)c(OC)c(OC)c1)c1ccc(Cl)cc1	> 100 µM
CCC1(O)CC(CCN(Cc2ccccc2)C(=O)OCc2ccccc2)C(OCc2ccccc2)C1O (configuration not stated)	31.3 µM
CSC(SC)=C(C(=O)c1ccc(Cl)cc1)n1c(=O)sc2cc(Br)ccc21	> 100 µM
O=[N+]([O-])c1ccc(-n2nc3ccc4nonc4c3n2)cc1	> 100 µM
COc1cc2c[n+]3c4c(c2c(OC)c1OC)CCCC4CC3 (configuration not stated)	> 100 µM
CC1(C)CC(C)(C)c2cc(NC(=S)Nc3ccc([N+](=O)[O-])cc3)ccc2S1	> 69.3 µM
COc1ccc(-c2ccc(C3CC(c4ccccc4)=NN3)o2)c([N+](=O)[O-])c1 (configuration not stated)	> 100 µM
C/C(=N\Nc1nc2ccccc2s1)c1ccncn1	14.9 µM
CC1=C(C)C(=O)C(C2=CC(=O)c3ccccc3C2=O)=C(C2=CC(=O)c3ccccc3C2=O)C1=O	25.4 µM
CC1=NN(c2cccc(Cl)c2)C(=O)/C1=C\c1cn(CC(O)CN2CCCCC2)c2ccccc12 (configuration not stated)	6.4 µM
Cn1c(=O)oc2cc(C3CCC(=O)N3Cc3csc(-c4ccccc4)n3)ccc21 (configuration not stated)	> 100 µM
COC1(OC)C2(Cl)C3=CCCC=C3C1(Cl)C(Cl)=C2Cl	> 100 µM
CC(=O)[CH-]C(C)=O.CC(=O)[CH-]C(C)=O.[O-]c1ccccc1.[O-]c1ccccc1.[Ti+4]	> 100 µM
CCOC(=O)Nc1ccc2nc(-c3cscn3)[nH]c2c1	> 100 µM
